Data credit: the supplement of paper PMC11208160

- PROTOCOL_TEXT: recombinant UMI read abundance after kanamycin selection (control-corrected) (log10(CPM+1)); higher = more efficient recombination; extreme values may be limits of the assay; sequences stand for … in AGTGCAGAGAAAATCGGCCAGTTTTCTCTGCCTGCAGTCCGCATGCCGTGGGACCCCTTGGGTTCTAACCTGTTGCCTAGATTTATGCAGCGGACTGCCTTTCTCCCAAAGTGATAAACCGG…AGGTTGGTTTCACT; site = the 11-nt donor;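 note: IS621 bridge recombinase in Escherichia coli cells against a fixed T5 target plasmid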

ITEM_SEQUENCE	recombinant UMI read abundance (log10)
TCCATTCCATGGACCGGTTTTCCCGGTAATCCGTATTTGGA (site TCCATTCCTTC)	0.0134
TCATCCTCATGGACCGGTTTTCCCGGTAATCCGTATTTGCA (site TCATACTCTTG)	0.933
CTAGGCACATGGACCGGTTTTCCCGGTAATCCGTATTTGCA (site CTAGGCACTTG)	1.67
CCCGAGTCATGGACCGGTTTTCCCGGTAATCCGTATTTGCC (site CCCGAGTCTGG)	0.938
CGATCAACATGGACCGGTTTTCCCGGTAATCCGTATTTGTT (site CGATCTACTAA)	0.00984
TCACGACCATGGACCGGTTTTCCCGGTAATCCGTATTTGCT (site TCACGACCTAG)	0
TGGCCGGCATGGACCGGTTTTCCCGGTAATCCGTATTTGAC (site TGGCCGGCTGT)	1.4
ACCTAAACATGGACCGGTTTTCCCGGTAATCCGTATTTGGG (site ACCTACACTCC)	0.0196
AACAGTCCATGGACCGGTTTTCCCGGTAATCCGTATTTGAT (site AACCGTCCTAT)	0.00935
TCCTATTCATGGACCGGTTTTCCCGGTAATCCGTATTTGCC (site TCCCATTCTGG)	0
GACAAACCATGGACCGGTTTTCCCGGTAATCCGTATTTGGT (site GACCAACCTAC)	0.00428
CGAGTATCATGGACCGGTTTTCCCGGTAATCCGTATTTGAT (site CGAGTATCTAT)	2.89
TATATTGCATGGACCGGTTTTCCCGGTAATCCGTATTTGTC (site TATATTGCTGA)	0
GGAGACTCATGGACCGGTTTTCCCGGTAATCCGTATTTGGC (site GGAGACTCTGC)	0.784
ATAGTATCATGGACCGGTTTTCCCGGTAATCCGTATTTGAC (site ATAGTATCTGT)	3.75
ACCACCGCATGGACCGGTTTTCCCGGTAATCCGTATTTGCG (site CCCACCGCTCG)	0.221
TTGTACCCATGGACCGGTTTTCCCGGTAATCCGTATTTGGT (site TTGTACCCTAC)	0.111
ACCTAAACATGGACCGGTTTTCCCGGTAATCCGTATTTGGG (site ACCTATACTCC)	0.0143
GAAGATTCATGGACCGGTTTTCCCGGTAATCCGTATTTGTC (site GAAGATTCTGA)	2.29
GAATGACCATGGACCGGTTTTCCCGGTAATCCGTATTTGCA (site GAATGTCCTTG)	0
CCATTTACATGGACCGGTTTTCCCGGTAATCCGTATTTGCT (site CCTTTTACTAG)	0.00937
CGCCGCACATGGACCGGTTTTCCCGGTAATCCGTATTTGCT (site CGCCGCACTAG)	2.18
AGACTTTCATGGACCGGTTTTCCCGGTAATCCGTATTTGAC (site AGACTTTCTGT)	0
CGGAATCCATGGACCGGTTTTCCCGGTAATCCGTATTTGTT (site TGGCATCCTAA)	0.00352
TAGCTTGCATGGACCGGTTTTCCCGGTAATCCGTATTTGAA (site TAGCTTGCTTT)	1.4
TGGTCGGCATGGACCGGTTTTCCCGGTAATCCGTATTTGGC (site TGGCCGGCTGC)	0.682
GCCAAGGCATGGACCGGTTTTCCCGGTAATCCGTATTTGAG (site GCCAAGGCTCT)	1.49
CACTCCTCATGGACCGGTTTTCCCGGTAATCCGTATTTGCC (site TACTCCTCTGG)	1.39
CGGAATACATGGACCGGTTTTCCCGGTAATCCGTATTTGTT (site CGGAATTCTAA)	0
AATGTAACATGGACCGGTTTTCCCGGTAATCCGTATTTGCG (site AATGTAACTAG)	0
CCAGGTGCATGGACCGGTTTTCCCGGTAATCCGTATTTGAG (site CCAGGTGCTAT)	0.721
CGGGAGTCATGGACCGGTTTTCCCGGTAATCCGTATTTGCC (site CGGGAGTCTGA)	2.66
CAAGGGCCATGGACCGGTTTTCCCGGTAATCCGTATTTGTG (site CAAGGGCCTCA)	0.314
TTCGAGACATGGACCGGTTTTCCCGGTAATCCGTATTTGCA (site TTCGAGACTTG)	0.725
TTGGAAACATGGACCGGTTTTCCCGGTAATCCGTATTTGCA (site GTGGAAACTTG)	0.342
CGATCTTCATGGACCGGTTTTCCCGGTAATCCGTATTTGCT (site CGATCCTCTAG)	0.00985
